- Target Under Test: STK33 (human)
- Method Summary: radiometric filter-binding kinase assay, Kinase HotSpot
- Test Parameters: compound 0.5 µM; ATP 10 µM
Measurement Type: residual activity (%)
Please respond with the number in % and leave the unit unwritten.

Param item = `FC(F)(F)c1ccc(/C=C/c2nc(COc3ccc(CCCCn4ccnn4)cc3)co2)cc1` ; retrieve measured residual activity.
93.7

# iterate: `COc1cc2c(N3CCN(C(=O)Nc4ccc(OC(C)C)cc4)CC3)ncnc2cc1OCCCN1CCCCC1`
91.1

Ok, now `N#Cc1c(NC(=O)c2cccc3ccccc23)sc2c1CCCC2`
93

What do you get for `CN[C@@H]1C[C@H]2O[C@@](C)([C@@H]1OC)n1c3ccccc3c3c4c(c5c6ccccc6n2c5c31)C(=O)NC4` ?
10.7

Lookup `O=C(c1ccccc1)c1ccc(N2CCOCC2)cc1O`
108

# repeat for `COc1cc2c(cc1OC)-c1[nH]nc(Nc3cccc(F)c3)c1C2`
99.5

# repeat for `N#CCCc1ccc2c(c1)-c1[nH]c3ccc([N+](=O)[O-])cc3c1CC(=O)N2`
78.8

Record: `N#C/C(=C1/Nc2ccccc2S1)c1ccnc(NCCc2cccnc2)n1`
55.4

Then `Nc1ncnc2c1cnn2-c1ccccc1` ?
96.1

Now the compound `c1ccc(-c2cnc(Nc3ccc(OCCN4CCCC4)cc3)s2)cc1`
91

====

Exercise: state measured residual activity for each of the molecules provided.
- Target Under Test: TYRO3 (human)
- Method Summary: radiometric filter-binding kinase assay, Kinase HotSpot
- Test Parameters: compound 0.5 µM; ATP 10 µM
Numbers only; they are read as %.

Any idea what residual activity came out for `COc1cc2c(cc1OC)-c1[nH]nc(Nc3cccc(F)c3)c1C2` on TYRO3 (human)?
97.2

Now this one: `O=C(O)c1ccc2c3c1cccc3c(=O)n1c3ccccc3nc21`
102

Moving on to the next molecule: `N#Cc1c(NC(=O)c2cccc3ccccc23)sc2c1CCCC2`
101

For `Nc1ncnc2c1cnn2-c1ccccc1` then?
102

Moving on to the next molecule: `N/C(=N\N=C/c1ccc(-c2cccc([N+](=O)[O-])c2)o1)N[N+](=O)[O-]`
91.5

// query: `COc1cc2c(N3CCN(C(=O)Nc4ccc(OC(C)C)cc4)CC3)ncnc2cc1OCCCN1CCCCC1`
101

Param item: `COc1cc2c(Nc3ccc(Br)cc3F)ncnc2cc1OCC1CCN(C)CC1`
33

`c1ccc(-c2cnc(Nc3ccc(OCCN4CCCC4)cc3)s2)cc1` ?
90.9

Same again, this time with `FC(F)(F)c1ccc(/C=C/c2nc(COc3ccc(CCCCn4ccnn4)cc3)co2)cc1`
103

Now this one: `CCCCc1c(-c2ccc(O)cc2)[nH]c2nccnc12`
99.6

Entry to check: `O=c1c(-c2ccc(F)cc2)c(-c2ccncc2)[nH]n1-c1ccc(Cl)cc1`
105

And the next one, `N#C/C(=C1/Nc2ccccc2S1)c1ccnc(NCCc2cccnc2)n1` ?
98.3

Please answer likewise for `Cn1cc(/C=C2\C(=O)Nc3ccc(S(N)(=O)=O)cc32)c2ccccc21`
90.5

Now the molecule `Cc1cc(Nc2nc(-c3ccccc3)nc3ccccc23)n[nH]1`
94.2

Queued: `O=S(=O)(NCCNC/C=C/c1ccc(Br)cc1)c1cccc2cnccc12`
93.9
